Readings of log10 of Ki for the listed compounds
- Target Or System: beta-catenin-B-cell lymphoma 9 protein complex (Homo sapiens, UniProt P35222)
- Sequence (P35222 whole entry, the tested form may be a part): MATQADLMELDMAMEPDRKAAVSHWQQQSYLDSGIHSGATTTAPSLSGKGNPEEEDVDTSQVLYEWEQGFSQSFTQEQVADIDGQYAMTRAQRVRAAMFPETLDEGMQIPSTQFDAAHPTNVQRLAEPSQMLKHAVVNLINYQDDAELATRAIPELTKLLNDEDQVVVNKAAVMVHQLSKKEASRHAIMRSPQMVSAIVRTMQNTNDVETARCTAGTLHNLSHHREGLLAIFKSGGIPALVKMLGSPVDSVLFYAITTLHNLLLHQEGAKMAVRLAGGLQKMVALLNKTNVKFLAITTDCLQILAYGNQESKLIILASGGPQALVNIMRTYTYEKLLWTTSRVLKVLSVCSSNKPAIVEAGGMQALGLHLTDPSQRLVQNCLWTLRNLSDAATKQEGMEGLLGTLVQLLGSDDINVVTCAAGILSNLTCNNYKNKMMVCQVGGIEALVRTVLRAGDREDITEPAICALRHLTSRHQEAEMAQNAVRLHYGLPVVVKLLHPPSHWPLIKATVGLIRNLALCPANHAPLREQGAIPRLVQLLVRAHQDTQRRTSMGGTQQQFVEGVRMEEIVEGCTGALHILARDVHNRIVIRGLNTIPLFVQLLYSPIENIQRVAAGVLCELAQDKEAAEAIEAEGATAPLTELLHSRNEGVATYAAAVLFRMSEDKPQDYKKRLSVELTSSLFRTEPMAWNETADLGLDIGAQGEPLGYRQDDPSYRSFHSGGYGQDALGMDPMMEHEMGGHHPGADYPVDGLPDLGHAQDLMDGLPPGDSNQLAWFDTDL
- Sequence (O00512 whole entry, further chain, the tested form may be a part): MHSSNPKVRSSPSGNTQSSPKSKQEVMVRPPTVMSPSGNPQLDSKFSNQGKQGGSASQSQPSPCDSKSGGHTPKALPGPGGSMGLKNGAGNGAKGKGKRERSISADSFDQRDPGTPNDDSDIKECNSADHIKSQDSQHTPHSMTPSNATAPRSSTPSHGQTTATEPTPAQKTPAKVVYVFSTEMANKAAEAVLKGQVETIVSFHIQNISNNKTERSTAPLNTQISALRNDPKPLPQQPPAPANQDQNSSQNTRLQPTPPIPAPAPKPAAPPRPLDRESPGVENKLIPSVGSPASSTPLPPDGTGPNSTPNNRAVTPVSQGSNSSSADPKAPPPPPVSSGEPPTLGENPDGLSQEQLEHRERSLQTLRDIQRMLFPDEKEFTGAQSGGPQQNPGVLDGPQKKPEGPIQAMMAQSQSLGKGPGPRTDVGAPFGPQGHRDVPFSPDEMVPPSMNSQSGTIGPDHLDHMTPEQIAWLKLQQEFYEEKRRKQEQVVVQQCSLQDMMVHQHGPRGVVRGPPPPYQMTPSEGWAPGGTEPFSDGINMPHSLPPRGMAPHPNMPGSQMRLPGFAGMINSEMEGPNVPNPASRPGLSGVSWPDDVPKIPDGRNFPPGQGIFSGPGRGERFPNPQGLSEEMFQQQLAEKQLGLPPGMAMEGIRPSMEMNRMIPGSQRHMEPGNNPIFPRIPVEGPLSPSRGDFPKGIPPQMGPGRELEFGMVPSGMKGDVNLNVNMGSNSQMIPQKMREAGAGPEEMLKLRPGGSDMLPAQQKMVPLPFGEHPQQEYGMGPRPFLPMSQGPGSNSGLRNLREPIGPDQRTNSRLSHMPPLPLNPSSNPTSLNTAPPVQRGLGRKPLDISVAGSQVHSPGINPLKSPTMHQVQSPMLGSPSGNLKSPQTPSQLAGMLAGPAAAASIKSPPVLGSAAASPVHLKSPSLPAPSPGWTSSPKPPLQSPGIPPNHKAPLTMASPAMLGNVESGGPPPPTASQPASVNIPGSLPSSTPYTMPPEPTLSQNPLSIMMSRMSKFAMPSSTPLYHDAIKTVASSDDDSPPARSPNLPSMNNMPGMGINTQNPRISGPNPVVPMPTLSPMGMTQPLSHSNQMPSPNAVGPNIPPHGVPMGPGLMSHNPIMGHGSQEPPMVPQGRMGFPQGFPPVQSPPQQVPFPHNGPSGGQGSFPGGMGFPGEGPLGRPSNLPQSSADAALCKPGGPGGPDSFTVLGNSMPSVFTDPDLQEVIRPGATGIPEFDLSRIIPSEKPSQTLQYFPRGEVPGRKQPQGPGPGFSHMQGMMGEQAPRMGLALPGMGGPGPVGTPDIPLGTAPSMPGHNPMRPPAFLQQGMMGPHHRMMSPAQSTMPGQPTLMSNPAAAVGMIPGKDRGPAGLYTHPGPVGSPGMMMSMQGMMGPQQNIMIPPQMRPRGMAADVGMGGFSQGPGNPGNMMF
- Test Summary: Competitive inhibition of wild type beta-catenin (unknown origin) expressed in Escherichia coli BL21 DE3 interaction with N-terminally biotinylated human BCL9 (350 to 375 residues) by alpha screen assay
The common logarithm of Ki in µM is what is listed.

Compound: O=C(c1cc(F)cc(C2CCNCC2)c1)N1CCN(C(=O)c2ccc(O[C@H]3CCNC3)c(-c3ccc(F)cc3)c2)CC1
Quantity Measured: log10 of Ki
Recorded Value: 1.30

stdin: Which log10 of Ki value is on record for O=C(Nc1ccc(OC2CCNC2)c(-c2ccc(F)cc2)c1)c1ccc(O[C@H]2CCNC2)c(-c2ccc(F)c(F)c2)c1 (some centres undefined) ?
stdout: 0.32

stdin: Entry Cl.Cl.O=C(c1cc(F)cc(N2CCNCC2)c1)N1CCN(C(=O)c2ccc(O[C@H]3CCNC3)c(C3CCC(C(F)(F)F)CC3)c2)CC1 (some centres undefined) please
stdout: 1.20

stdin: Entry `CC1(C)CCC(c2cc(C(=O)N3CCN(C(=O)c4cc(F)cc(N5CCNCC5)c4)CC3)ccc2O[C@H]2CCNC2)CC1` please
stdout: 1.85

stdin: Entry `O=C(c1cc(F)cc(N2CCNCC2)c1)N1CCN(C(=O)c2ccc(O[C@H]3CCNC3)c(C3CCC(F)(F)CC3)c2)CC1` please
stdout: 1.65

stdin: Entry `O=C(c1cc(F)cc(N2CCNCC2)c1)N1CCN(C(=O)c2ccc(O[C@H]3CCNC3)c(C3CCCC3)c2)CC1` please
stdout: 1.72

stdin: Entry CCC1CCC(c2cc(C(=O)N3CCN(C(=O)c4cc(F)cc(N5CCNCC5)c4)CC3)ccc2O[C@H]2CCNC2)CC1 (some centres undefined) please
stdout: 2.23

stdin: Entry CC(C)c1cc2c(c(O)c1O)[C@@]1(C(=O)O)CCCC(C)(C)[C@@H]1CC2 [CARNOSIC ACID] please
stdout: 0.72

src = ChEMBL document CHEMBL3817780
